B1: ZNF232 (parent)
chain: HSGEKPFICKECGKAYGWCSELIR

Variants of: B1
Assay: protein stability index of a GFP-peptide fusion (GPS, HEK-293T) (PSI 1-6); higher = more stable;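 also: lentivirally expressed fusions sorted by FACS into six bins by GFP to DsRed ratio, PSI derived from sequencing read proportions per bin multiplied by bin number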
Conditions: c terminus: a fixed tail appended
Label Satisfied when protein stability index is at or above 2; anything below gets Not satisfied.

> print(dat)
    sequence.change  category.label
 1             L22P       Satisfied
 2             C19K       Satisfied
 3              E4M   Not satisfied
 4              C9T       Satisfied
 5             R24K       Satisfied
 6             A15W   Not satisfied
 7             E11L   Not satisfied
 8              P6Y   Not satisfied
 9             W18Q       Satisfied
10              G3N       Satisfied
11             S20W   Not satisfied
12             C12I       Satisfied
